Target: lipoxygenase (Rattus norvegicus, UniProt P12527)
Construct: abdominal cells of Wister rat (7 to 12 week-age); endogenous in cells; host or cells: abdominal (peritoneal) cells of Wister [Wistar] rat
Assay: Inhibition activity to lipoxygenase (leukotriene production by rat abdominal cells, bioassay on guinea pig ileum)
Format: cell-based, Wister rat
Conditions: 10^-5 M (final concentration); rat abdominal cells, calcium ionophore A-23187; read-out: Inhibition intensity
Please provide measured inhibition at 10 µM for the entries that follow.

Quick note, inhibition at 10 µM for c1ccc(OCCCOc2ccc(Cc3nc4ccccc4s3)cc2)cc1 landed at 80 to 100%

Quick note, inhibition at 10 µM for C#CCCCC#CCOc1ccccc1Cc1nc2ccccc2o1 landed at 50 to 80%

Quick note, inhibition at 10 µM for Clc1cc(Cc2nc3ccccc3o2)ccc1OCCCCOc1ccccc1 landed at 80 to 100%

Quick note, inhibition at 10 µM for CC#CCOc1cccc(Cc2nc(-c3ccccc3)co2)c1 landed at 50 to 80%

Quick note, inhibition at 10 µM for CCCC#CCOc1ccc(Cc2nc3ccccc3o2)cc1 landed at 80 to 100%

Quick note, inhibition at 10 µM for C#CCCCOc1ccc(Cl)cc1Cc1nc2ccccc2o1 landed at 50 to 80%

Quick note, inhibition at 10 µM for Cc1ccccc1OCCCCOc1ccc(Cc2nc3ccccc3o2)cc1 landed at 50 to 80%

Quick note, inhibition at 10 µM for CC#CCOc1cccc(Cl)c1Cc1nc2ccccc2o1 landed at 80 to 100%

Quick note, inhibition at 10 µM for Clc1cc(Cc2nc3ccccc3o2)ccc1OCCCC#Cc1ccccc1 landed at 80 to 100%

Quick note, inhibition at 10 µM for C(#Cc1ccccc1)CCCOc1ccccc1Cc1nc2ccccc2o1 landed at 50 to 80%

###

Please provide measured inhibition at 10 µM for the entries that follow.
Target: lipoxygenase (Rattus norvegicus)
Construct: abdominal cells of Wister rat (7 to 12 week-age); endogenous in cells; host or cells: abdominal (peritoneal) cells of Wister [Wistar] rat
Assay: Inhibition activity to lipoxygenase (leukotriene production by rat abdominal cells, bioassay on guinea pig ileum)
Type: cell-based, Wister rat
Details: 10^-5 M (final concentration); rat abdominal cells, calcium ionophore A-23187; read-out: Inhibition intensity

Quick note, inhibition at 10 µM for Clc1cc(OCCCCOc2ccccc2)ccc1Cc1nc2ccccc2o1 landed at 80 to 100%

Quick note, inhibition at 10 µM for CC#CCOc1cccc(Cc2nc3ccccc3o2)c1 landed at 80 to 100%

Quick note, inhibition at 10 µM for Fc1ccc(OCCCCOc2ccc(Cc3nc4ccccc4o3)cc2)cc1 landed at 50 to 80%

Quick note, inhibition at 10 µM for c1ccc(OCCCOc2ccc(Cc3nc4ccccc4o3)cc2)cc1 landed at 80 to 100%

Quick note, inhibition at 10 µM for CCCCOc1cccc(Cc2nc3ccccc3o2)c1 landed at 80 to 100%

Quick note, inhibition at 10 µM for Clc1ccccc1OCCCCOc1ccc(Cc2nc3ccccc3o2)cc1 landed at 50 to 80%

Quick note, inhibition at 10 µM for COCCCCOc1ccc(Cc2nc3ccccc3o2)cc1Cl landed at 80 to 100%

Quick note, inhibition at 10 µM for c1ccc(OCCCCCCOc2ccc(Cc3nc4ccccc4o3)cc2)cc1 landed at 80 to 100%

Quick note, inhibition at 10 µM for CC#CCOc1ccccc1Cc1nc2ccccc2o1 landed at 80 to 100%

Quick note, inhibition at 10 µM for Clc1ccc(OCCCCOc2ccc(Cc3nc4ccccc4o3)cc2Cl)cc1 landed at 50 to 80%

###

Please provide measured inhibition at 1 µM for the entries that follow.
Molecular target: lipoxygenase (Rattus norvegicus)
Construct: abdominal cells of Wister rat (7 to 12 week-age); endogenous in cells; host or cells: abdominal (peritoneal) cells of Wister [Wistar] rat
Test: Inhibition activity to lipoxygenase (leukotriene production by rat abdominal cells, bioassay on guinea pig ileum)
Assay type: cell-based, Wister rat
Details: 10^-6 M (final concentration); rat abdominal cells, calcium ionophore A-23187; read-out: Inhibition intensity

Quick note, inhibition at 1 µM for c1ccc(OCCCOc2ccc(Cc3nc4ccccc4s3)cc2)cc1 landed at 20 to 50%

Quick note, inhibition at 1 µM for C(#CCOc1ccccc1Cc1nc2ccccc2o1)CCCC#Cc1ccccc1 landed at 20 to 50%

Quick note, inhibition at 1 µM for c1ccc(OCCCOc2ccc(Cc3nc4ccccc4o3)cc2)cc1 landed at 20 to 50%

Quick note, inhibition at 1 µM for Clc1cc(Cc2nc3ccccc3o2)ccc1OCCCCOc1ccccc1 landed at 50 to 80%

Quick note, inhibition at 1 µM for C(#Cc1ccccc1)CCCOc1ccc(Cc2nc3ccccc3o2)cc1 landed at 20 to 50%

Quick note, inhibition at 1 µM for CC#CCOc1cccc(Cl)c1Cc1nc2ccccc2o1 landed at 50 to 80%

Quick note, inhibition at 1 µM for COCCCCOc1ccc(Cc2nc3ccccc3o2)cc1 landed at 20 to 50%

Quick note, inhibition at 1 µM for Cc1ccccc1OCCCCOc1ccc(Cc2nc3ccccc3o2)cc1 landed at 20 to 50%

###

Biological target: lipoxygenase (Rattus norvegicus)
Construct: abdominal cells of Wister rat (7 to 12 week-age); endogenous in cells; host or cells: abdominal (peritoneal) cells of Wister [Wistar] rat
Assay: Inhibition activity to lipoxygenase (leukotriene production by rat abdominal cells, bioassay on guinea pig ileum)
Format: cell-based, Wister rat
Conditions: 10^-6 M (final concentration); rat abdominal cells, calcium ionophore A-23187; read-out: Inhibition intensity
measured.parameter: inhibition at 1 µM

Quick note, inhibition at 1 µM for C(#Cc1ccccc1)CCCOc1ccccc1Cc1nc2ccccc2o1 [Compound 89] landed at 20 to 50%

Quick note, inhibition at 1 µM for Fc1ccc(OCCCCOc2ccc(Cc3nc4ccccc4o3)cc2)cc1 [Compound 15] landed at 20 to 50%

Quick note, inhibition at 1 µM for CCCC#CCOc1ccc(Cc2nc3ccccc3o2)cc1 [Compound 37] landed at 20 to 50%

Quick note, inhibition at 1 µM for c1ccc(OCCCCCCOc2ccc(Cc3nc4ccccc4o3)cc2)cc1 [Compound 5] landed at 20 to 50%

Quick note, inhibition at 1 µM for C#CCCCOc1ccc(Cl)cc1Cc1nc2ccccc2o1 [Compound 112] landed at 20 to 50%

Quick note, inhibition at 1 µM for c1ccc(COCCCOc2ccc(Cc3nc4ccccc4o3)cc2)cc1 [Compound 19] landed at 50 to 80%

Quick note, inhibition at 1 µM for CC#CCOc1cccc(Cc2nc3ccccc3o2)c1 [Compound 73] landed at 20 to 50%

Quick note, inhibition at 1 µM for COCCCCOc1ccc(Cc2nc3ccccc3o2)cc1Cl [Compound 51] landed at 50 to 80%

Quick note, inhibition at 1 µM for Clc1ccccc1OCCCCOc1ccc(Cc2nc3ccccc3o2)cc1 [Compound 7] landed at 20 to 50%

Quick note, inhibition at 1 µM for Clc1ccc(OCCCCOc2ccc(Cc3nc4ccccc4o3)cc2Cl)cc1 [Compound 62] landed at 20 to 50%

###

Test system: Ear Edema Caused by Arachidonic Acid
Experiment: Suppressing effect on ear edema caused by arachidonic acid
Type: in vivo, ICR male mice
Settings: Mus musculus, topical, 1 h; local application, 0.1 mg/auricle, 30 min before inflammatory agent (2 mg arachidonic acid); thickness after one hour; read-out: Suppression rate (ear edema)
Threshold rule: inhibition in vivo at 0.1 mg greater than or equal to 40% is 1; below that, -1.

Does inhibition in vivo at 0.1 mg meet or surpass 40% for C#CCCCC#CCOc1ccccc1Cc1nc2ccccc2o1 ?
1

Does inhibition in vivo at 0.1 mg meet or surpass 40% for Clc1ccc(OCCCCOc2ccc(Cc3nc4ccccc4o3)cc2Cl)cc1 ?
-1

Does inhibition in vivo at 0.1 mg meet or surpass 40% for CC(Cc1ccc(O)c(O)c1)C(C)Cc1ccc(O)c(O)c1 (centres unmarked) [NDGA, Nordihydroguaiaretic acid, reference compound] ?
-1

Does inhibition in vivo at 0.1 mg meet or surpass 40% for C#CCCCOc1c(Cl)cccc1Cc1nc(-c2ccccc2)co1 ?
1

Does inhibition in vivo at 0.1 mg meet or surpass 40% for CCCC#CCOc1ccc(Cc2nc3ccccc3o2)cc1 ?
1

Does inhibition in vivo at 0.1 mg meet or surpass 40% for CC#CCOc1ccc(Cc2nc3ccccc3o2)c(Cl)c1 ?
1

Does inhibition in vivo at 0.1 mg meet or surpass 40% for OCC#CCCCC#CCCCOc1ccc(Cc2nc3ccccc3o2)cc1Cl ?
1

Does inhibition in vivo at 0.1 mg meet or surpass 40% for Clc1cc(OCCCCOc2ccccc2)ccc1Cc1nc2ccccc2o1 ?
1

###

Target: lipoxygenase (Rattus norvegicus, UniProt P12527)
Construct: abdominal cells of Wister rat (7 to 12 week-age); endogenous in cells; host or cells: abdominal (peritoneal) cells of Wister [Wistar] rat
Sequence (P12527 1-673): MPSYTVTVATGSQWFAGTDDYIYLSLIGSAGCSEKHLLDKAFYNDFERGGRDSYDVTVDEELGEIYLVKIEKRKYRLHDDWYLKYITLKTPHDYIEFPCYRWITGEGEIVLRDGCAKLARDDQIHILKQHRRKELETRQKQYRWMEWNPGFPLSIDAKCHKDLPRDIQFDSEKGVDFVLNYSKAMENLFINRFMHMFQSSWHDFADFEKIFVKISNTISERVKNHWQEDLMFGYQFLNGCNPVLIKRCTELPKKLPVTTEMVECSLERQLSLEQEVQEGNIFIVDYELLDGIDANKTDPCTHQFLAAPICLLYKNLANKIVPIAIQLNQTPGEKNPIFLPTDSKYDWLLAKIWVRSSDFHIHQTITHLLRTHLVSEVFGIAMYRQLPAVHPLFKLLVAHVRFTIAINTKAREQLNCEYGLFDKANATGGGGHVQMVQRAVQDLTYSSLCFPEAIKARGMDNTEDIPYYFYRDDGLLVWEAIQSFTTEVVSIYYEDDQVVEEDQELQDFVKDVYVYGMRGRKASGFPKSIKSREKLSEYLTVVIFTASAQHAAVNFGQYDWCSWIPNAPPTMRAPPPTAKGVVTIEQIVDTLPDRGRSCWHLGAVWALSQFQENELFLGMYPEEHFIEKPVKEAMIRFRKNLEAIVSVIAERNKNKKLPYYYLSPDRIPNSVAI
Assay: Inhibition activity to lipoxygenase (leukotriene production by rat abdominal cells, bioassay on guinea pig ileum)
Type: cell-based, Wister rat
Conditions: 10^-5 M (final concentration); rat abdominal cells, calcium ionophore A-23187; read-out: Inhibition intensity
measured.parameter: inhibition at 10 µM

Quick note, inhibition at 10 µM for C(#Cc1ccccc1)CCCOc1ccc(Cc2nc3ccccc3o2)cc1 landed at 80 to 100%

Quick note, inhibition at 10 µM for C(#CCOc1ccccc1Cc1nc2ccccc2o1)CCCC#Cc1ccccc1 landed at 80 to 100%

Quick note, inhibition at 10 µM for CC#CCOc1ccc(Cc2nc3ccccc3o2)c(Cl)c1 landed at 50 to 80%

Quick note, inhibition at 10 µM for OCC#CCCCC#CCCCOc1ccc(Cc2nc3ccccc3o2)cc1Cl landed at 80 to 100%

Quick note, inhibition at 10 µM for COCCCCOc1ccc(Cc2nc3ccccc3o2)cc1 landed at 50 to 80%

Quick note, inhibition at 10 µM for c1ccc(COCCCOc2ccc(Cc3nc4ccccc4o3)cc2)cc1 landed at 80 to 100%
